measurement_target: T1, purified prostasomes (from human seminal plasma) (human)
T1 construct: Not a single protein: exosome-type vesicle purified from seminal plasma
assay_info: direct ELISA, coated purified prostasomes, biotinylated scFv at 4 µg/mL, streptavidin-HRP
readout_type: Absorbance (absorbance at 450 nm)
// return numeric value only (unit: absorbance at 450 nm, not printed)

- binder: "human synthetic scFv fragment 7 (scFv, also called scFv 7; AK7) scFv: EVQLLESGGGLVQPGGSLRLSCAASGFTFSSYAMSWVRQAPGKGLEWVSAISGSGGSTYYASVKGRFTISRDNSKNTLYLQMNSLRAEDTAVYYCARYTHSTYGYRLDYWGQGTLVTVSSGGGGSGGGGSGGGGSDIQMTQSPSSLSASVGDRVTITCRASQSISSYLNWYQQKPGKAPKLLIYAASSLQSGVPSRFSGSGSGTDFTLTISSLQPEDFATYYCQQDAYHPPTFGQGTKLEIKR"
  Absorbance (absorbance at 450 nm): 1.36
- binder: "human synthetic scFv fragment 2 (scFv, also called scFv 2) scFv: EVQLLESGGGLVQPGGSLRLSCAASGFTFSSYAMSWVRQAPGKGLEWVSAISGSGGSTYYASVKGRFTISRDNSKNTLYLQMNSLRAEDTAVYYCARTTSYYGYSAHFIDYWGQGTLVTVSSGGGGSGGGGSGGGGSDIQMTQSPSSLSASVGDRVTITCRASQSISSYLNWYQQKPGKAPKLLIYAASSLQSGVPSRFSGSGSGTDFTLTISSLQPEDFATYYCQQGYGPFTFGQGTKLEIKR"
  Absorbance (absorbance at 450 nm): 0.394
- binder: "human synthetic scFv fragment 1 (scFv, also called scFv 1) scFv: EVQLLESGGGLVQPGGSLRLSCAASGFTFSSYAMSWVRQAPGKGLEWVSAISGSGGSTYYASVKGRFTISRDNSKNTLYLQMNSLRAEDTAVYYCARHYYNWASGYFDYWGQGTLVTVSSGGGGSGGGGSGGGGSDIQMTQSPSSLSASVGDRVTITCRASQSISSYLNWYQQKPGKAPKLLIYAASSLQSGVPSRFSGSGSGTDFTLTISSLQPEDFATYYCQQGWYPPTFGQGTKLEIKR"
  Absorbance (absorbance at 450 nm): 0.643
- binder: "human synthetic scFv fragment 8 (scFv, also called scFv 8) scFv: EVQLLESGGGLVQPGGSLRLSCAASGFTFSSYAMSWVRQAPGKGLEWVSAISGSGGSTYYASVKGRFTISRDNSKNTLYLQMNSLRAEDTAVYYCARVFYYGPYYFSYHFDYWGQGTLVTVSSGGGGSGGGGSGGGGSDIQMTQSPSSLSASVGDRVTITCRASQSISSYLNWYQQKPGKAPKLLIYAASSLQSGVPSRFSGSGSGTDFTLTISSLQPEDFATYYCQQDDRGLPTFGQGTKLEIKR"
  Absorbance (absorbance at 450 nm): 0.653

Kindly consider the entry below.
Please report the recorded Absorbance for human synthetic scFv fragment 12 (scFv, also called scFv 12) scFv: EVQLLESGGGLVQPGGSLRLSCAASGFTFSSYAMSWVRQAPGKGLEWVSAISGSGGSTYYASVKGRFTISRDNSKNTLYLQMNSLRAEDTAVYYCARTYYYFYPYGYYFDYWGQGTLVTVSSGGGGSGGGGSGGGGSDIQMTQSPSSLSASVGDRVTITCRASQSISSYLNWYQQKPGKAPKLLIYAASSLQSGVPSRFSGSGSGTDFTLTISSLQPEDFATYYCQQGFYLPTFGQGTKLEIKR . 0.954
